FYI, the data here is from paper PMC8225045.

System: methicillin-resistant Staphylococcus aureus (MRSA) shhsE1
Run description: microbe, parasite or virus in culture
Settings: clinical MRSA shhsE1; two-fold serial dilution, Mueller-Hinton broth, 96-well plate, CLSI-based; maximum test concentration 128 μg/mL
Source text: […]
Non-standard residues stand in square brackets, D forms with d. Residues, ends and D or L forms follow the SMILES beside them. dOrn = NCCC[C@@H](N)C(=O)O
Reported metric: MIC (µg/mL)

{"Compound": "CC(C)C[C@@H]1NC(=O)[C@H](Cc2c[nH]c3ccccc23)NC(=O)[C@@H](CCCCN)NC(=O)[C@H](CC(N)=O)NC(=O)[C@H](C(C)C)NC(=O)[C@@H](CC(C)C)NC1=O [Compound 9, Wollamide B2] (cyclo([dK]WL[dL]VN))", "Prefix operator": "=", "Value": 32}
{"Compound": "CC(C)C[C@@H]1NC(=O)[C@H](Cc2c[nH]c3ccccc23)NC(=O)[C@@H](CCCNC(=N)N)NC(=O)[C@H](CC(N)=O)NC(=O)[C@H](C(C)C)NC(=O)[C@@H](CC(C)C)NC1=O [Compound 8, Wollamide B1] (cyclo([dR]WL[dL]VN))", "Prefix operator": "=", "Value": 16}
{"Compound": "CC(C)C[C@@H]1NC(=O)[C@H](Cc2c[nH]c3ccccc23)NC(=O)[C@@H](CCCN)NC(=O)[C@H](CC(N)=O)NC(=O)[C@H](C(C)C)NC(=O)[C@@H](CC(C)C)NC1=O [Compound 7, Wollamide B] (cyclo([dOrn]WL[dL]VN))", "Prefix operator": "=", "Value": 32}
{"Compound": "CC(C)C[C@@H]1NC(=O)[C@H](Cc2c[nH]c3ccccc23)NC(=O)[C@@H](CCCCN)NC(=O)[C@H](CC(N)=O)NC(=O)[C@H](CC(C)C)NC(=O)[C@@H](CC(C)C)NC1=O [Compound 17, Desotamide A8] (cyclo([dK]WL[dL]LN))", "Prefix operator": "=", "Value": 64}
{"Compound": "CC(C)C[C@@H]1NC(=O)[C@H](CC(N)=O)NC(=O)CNC(=O)[C@H](Cc2c[nH]c3ccccc23)NC(=O)[C@H](CC(C)C)NC(=O)[C@@H](CC(C)C)NC1=O [Compound 16, Desotamide A7] (cyclo(NL[dL]LWG))", "Prefix operator": ">", "Value": 128}

====

Tested on: Enterococcus gallinarum LJH11
Run description: microbe, parasite or virus in culture
Non-standard residues stand in square brackets, D forms with d. Residues, ends and D or L forms follow the SMILES beside them. aIle = CC[C@@H](C)[C@H](N)C(=O)O

{"Molecule": "CC[C@@H](C)[C@@H]1NC(=O)[C@@H](CC(C)C)NC(=O)[C@H](CC(C)C)NC(=O)[C@H](Cc2c[nH]c3ccccc23)NC(=O)CNC(=O)[C@H](CC(N)=O)NC1=O [Compound 1, desotamide A] (cyclo(GWL[dL][aIle]N))", "Prefix operator": "=", "MIC (µg/mL)": 64}
{"Molecule": "CC[C@@H](C)[C@@H]1NC(=O)[C@H](CC(N)=O)NC(=O)[C@@H](Cc2c[nH]cn2)NC(=O)[C@H](Cc2c[nH]c3ccccc23)NC(=O)[C@H](CC(C)C)NC(=O)[C@@H](CC(C)C)NC1=O [Compound 12, Desotamide A3] (cyclo(LW[dH]N[aIle][dL]))", "Prefix operator": ">", "MIC (µg/mL)": 128}
{"Molecule": "CC(C)C[C@@H]1NC(=O)[C@H](Cc2c[nH]c3ccccc23)NC(=O)[C@@H](CCCCN)NC(=O)[C@H](CC(N)=O)NC(=O)[C@H](CC(C)C)NC(=O)[C@@H](CC(C)C)NC1=O [Compound 17, Desotamide A8] (cyclo([dK]WL[dL]LN))", "Prefix operator": ">", "MIC (µg/mL)": 128}
{"Molecule": "CC[C@@H](C)[C@@H]1NC(=O)[C@H](CC(N)=O)NC(=O)[C@@H](CCCNC(=N)N)NC(=O)[C@H](Cc2c[nH]c3ccccc23)NC(=O)[C@H](CC(C)C)NC(=O)[C@@H](CC(C)C)NC1=O [Compound 10, Desotamide A1] (cyclo(LW[dR]N[aIle][dL]))", "Prefix operator": ">", "MIC (µg/mL)": 128}
{"Molecule": "CC[C@H](C)[C@@H]1NC(=O)[C@H](CC(N)=O)NC(=O)[C@@H](CCCNC(=N)N)NC(=O)[C@H](Cc2c[nH]c3ccccc23)NC(=O)[C@H](CC(C)C)NC(=O)[C@@H](CC(C)C)NC1=O [Compound 15, Desotamide A6] (cyclo(I[dL]LW[dR]N))", "Prefix operator": "=", "MIC (µg/mL)": 128}
{"Molecule": "CC[C@H](C)[C@@H]1NC(=O)[C@H](CC(N)=O)NC(=O)[C@@H](CCCCN)NC(=O)[C@H](Cc2c[nH]c3ccccc23)NC(=O)[C@H](CC(C)C)NC(=O)[C@@H](CC(C)C)NC1=O [Compound 13, Desotamide A4] (cyclo(I[dL]LW[dK]N))", "Prefix operator": "=", "MIC (µg/mL)": 64}
{"Molecule": "CC(C)C[C@@H]1NC(=O)[C@H](CC(N)=O)NC(=O)CNC(=O)[C@H](Cc2c[nH]c3ccccc23)NC(=O)[C@H](CC(C)C)NC(=O)[C@@H](CC(C)C)NC1=O [Compound 16, Desotamide A7] (cyclo(NL[dL]LWG))", "Prefix operator": ">", "MIC (µg/mL)": 128}
{"Molecule": "CC[C@@H](C)[C@@H]1NC(=O)[C@H](CC(N)=O)NC(=O)[C@@H](CCCCN)NC(=O)[C@H](Cc2c[nH]c3ccccc23)NC(=O)[C@H](CC(C)C)NC(=O)[C@@H](CC(C)C)NC1=O [Compound 11, Desotamide A2] (cyclo(LW[dK]N[aIle][dL]))", "Prefix operator": ">", "MIC (µg/mL)": 128}
{"Molecule": "CC[C@H](C)[C@@H]1NC(=O)[C@H](CC(N)=O)NC(=O)[C@@H](Cc2c[nH]cn2)NC(=O)[C@H](Cc2c[nH]c3ccccc23)NC(=O)[C@H](CC(C)C)NC(=O)[C@@H](CC(C)C)NC1=O [Compound 14, Desotamide A5] (cyclo(I[dL]LW[dH]N))", "Prefix operator": "=", "MIC (µg/mL)": 128}
{"Molecule": "CC(C)C[C@@H]1NC(=O)[C@H](Cc2c[nH]c3ccccc23)NC(=O)[C@@H](CCCNC(=N)N)NC(=O)[C@H](CC(N)=O)NC(=O)[C@H](C(C)C)NC(=O)[C@@H](CC(C)C)NC1=O [Compound 8, Wollamide B1] (cyclo([dR]WL[dL]VN))", "Prefix operator": "=", "MIC (µg/mL)": 64}
